Collected pEC50 values appear next to each entry.
Biological target: human adrenergic receptor (ADR) β1 (Homo sapiens, UniProt P08588)
Sequence (P08588 whole entry): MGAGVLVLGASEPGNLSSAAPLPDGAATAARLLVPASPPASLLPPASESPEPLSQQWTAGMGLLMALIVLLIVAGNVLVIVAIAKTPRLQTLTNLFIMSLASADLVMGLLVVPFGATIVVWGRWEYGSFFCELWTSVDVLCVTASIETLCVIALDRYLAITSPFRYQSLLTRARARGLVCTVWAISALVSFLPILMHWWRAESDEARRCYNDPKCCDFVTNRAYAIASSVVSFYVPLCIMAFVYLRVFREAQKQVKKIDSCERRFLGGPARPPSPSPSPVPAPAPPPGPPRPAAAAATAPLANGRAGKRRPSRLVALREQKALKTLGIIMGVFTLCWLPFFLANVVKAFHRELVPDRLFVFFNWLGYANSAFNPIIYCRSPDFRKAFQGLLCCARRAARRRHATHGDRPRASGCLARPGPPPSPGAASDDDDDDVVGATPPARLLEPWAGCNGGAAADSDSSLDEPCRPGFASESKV
Assay: ADRβ1 activation, Ca2+ influx (Fluo-8) in overexpressing chem-1 cells
pEC50: −log10 of the molar value.

Q: Request the reported pEC50 associated with Oc1ccc(CC2NCCc3cc(O)c(O)cc32)cc1 (centres unmarked)
Result: 7.47

Q: Request the reported pEC50 associated with "NCCc1ccccc1"
Result: < 3.52

Q: Request the reported pEC50 associated with CNC(C)C(O)c1ccc(O)cc1 (centres unmarked) [Methylsynephrine]
Result: 4.60

Q: Request the reported pEC50 associated with CC(C)CCCC(C)N (centres unmarked)
Result: < 3.52

Q: Request the reported pEC50 associated with "CN(C)CCc1ccc(O)cc1"
Result: < 3.52

Q: Request the reported pEC50 associated with CCC(C)CC(C)N (centres unmarked)
Result: < 3.52

Q: Request the reported pEC50 associated with "CN(C)CCO"
Result: < 3.52

Q: Request the reported pEC50 associated with CNCC(O)c1ccccc1 (centres unmarked)
Result: < 3.52

Q: Request the reported pEC50 associated with CC(C)CC(C)N (centres unmarked)
Result: < 3.52

Q: Request the reported pEC50 associated with CC(CN)c1ccccc1 (centres unmarked)
Result: < 3.52

Q: Request the reported pEC50 associated with "CN(C)CCc1ccccc1"
Result: < 3.52
